Give LA at 80 ng/ml for every item shown.
tested target: T1, soluble recombinant human uPAR/His6 (R&D Systems, Cat. # 807-UK-100) (human, UniProt Q03405 23-303)
T1 construct: range 1-303; Bought protein; also called soluble uPAR; hu-uPAR
T1 sequence (Q03405 other isoform, or with tags, fused parts or gaps limits assumed, form in doubt): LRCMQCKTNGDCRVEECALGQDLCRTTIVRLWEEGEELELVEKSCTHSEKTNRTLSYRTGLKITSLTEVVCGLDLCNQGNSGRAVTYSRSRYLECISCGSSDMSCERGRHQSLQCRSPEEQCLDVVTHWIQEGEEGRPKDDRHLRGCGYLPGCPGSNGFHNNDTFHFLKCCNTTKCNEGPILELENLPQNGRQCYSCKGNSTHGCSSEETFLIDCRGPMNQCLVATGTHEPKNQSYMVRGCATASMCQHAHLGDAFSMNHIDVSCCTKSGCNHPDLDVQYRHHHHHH
assay name: limited antigen ELISA, uPAR coat 80 ng/mL, sample 1:25
Answer as a number with no unit attached.

Can you share its LA at 80 ng/ml? I mean this binder: anti-uPAR monoclonal antibody 4.19.1 (antibody, V domains shown) VH: EVQLVESGGGLIQPGGSLRLSCAASGFSVSSNYMNWVRQAPGKGLEWVSVIYTGGSTYYADSVKGRFTISRDNSKNTLYLQMNSLRAEDTAVYYCARDTYLYGMDVWGQGTTVTVSS VL: EIVMTQSPATLSVSPGESATLSCRTSQSVSSNLAWYQQKPGQTPRLLIYGASARATGVPARFSGSGSGTEFTLTISSLQSEDFAVYYCQQYYNWPLTFGGGTKVEIK
1.03

Next record, please: fully human monoclonal antibody 4.18.1 (ATCC Accession Number PTA-7476) (antibody, V domains shown) VH: EVQLVESGGGLIQPGGSLRLSCAASGFTVRNNYMNWVRQAPGKGLEWVSVIYTGGSTYYADSVKGRFTISRDNSRNTLYLQMNSLRAEDTAVYYCAREGAVAGFDYWGQGTLVTVSL VL: EIVMTQFPATLSMSPGERATLSCRASQSVSSSLAWYQQTPGQAPRLLIYGASTRSTGFPARFSGIGSGTEFTLTISSLQSEDFAVYYCQQYGNWPLTFGQGTRLEIK
2.06

Same again, this time with anti-uPAR monoclonal antibody 1.61.1 (antibody, V domains shown) VH: EVQLVESGGGLVQPGGSLRLSCAASGFTFSSYDMHWVRQATGKGLEWVSAIGTAGDTYYPGSVKGRFTISRENAKNSLYLQMNSLRAGDTAVYYCAREGDYSNYFTRVRGVTYGMDVWGQGTTVTVSS VL: DIQMTQSPSSLSASVGDRVTITCRASQGISKYLAWFQQKPGKAPKSLIYGASSLQSGVPSKFSGSGSGTDFTLTISSLQPEDFATYYCQQYNSYPLTFGGGTKVEIK
1.99
